Hello, the source for this data is patent US9808527B2, in case you need it.

Test system: HIV-1LAI
assay_text: MTT assay, MT-2 cells exposed to HIV-1LAI (acute HIV-1 infection assay)
Format: cell-based
experimental_parameters: Human immunodeficiency virus 1, MT2, 168 h, read-out: IC50 against HIV-1LAI, MT-2 cells, 100 TCID50 of HIV-1LAI, MTT assay on day 7
experimental_readout: pIC50
Answer as the number alone; pIC50 is minus log10 of concentration in mol/L.

compound="COc1ccc(S(=O)(=O)N(CC(C)C)CC(O)C(Cc2ccccc2)NC(=O)OC2COC3OCCC23)cc1 (stereo not shown)" reported=9.52
compound=CC(C)(C)NC(=O)[C@@H]1C[C@@H]2CCCC[C@@H]2CN1C[C@@H](O)[C@H](Cc1ccccc1)NC(=O)[C@H](CC(N)=O)NC(=O)c1ccc2ccccc2n1 reported=8.10
compound=Cc1nc(COc2ccc(C[C@H](NC(=O)O[C@H]3CO[C@H]4OCC[C@H]43)[C@H](O)CN(CC(C)C)S(=O)(=O)c3ccc4c(c3)OCO4)cc2)cs1 reported=9.70
compound=CC(C)CN(C[C@@H](O)[C@H](Cc1ccccc1)NC(=O)O[C@H]1CO[C@H]2OCC[C@H]21)S(=O)(=O)c1ccc(N)cc1 reported=8.52
compound=COC(=O)N[C@H](C(=O)N[C@@H](Cc1ccccc1)[C@@H](O)CN(Cc1ccc(-c2ccccn2)cc1)NC(=O)[C@@H](NC(=O)OC)C(C)(C)C)C(C)(C)C reported=8.32

Could you now consider this next compound?
For record CCC[C@@]1(CCc2ccccc2)CC(O)=C([C@H](CC)c2cccc(NS(=O)(=O)c3ccc(C(F)(F)F)cn3)c2)C(=O)O1 the listed pIC50 is 7.00

###

Quick reference: pIC50 of the listed items.
Tested on: 92UG029 (A-X4)
assay_text: p24 Gag production inhibition, PHA-PBMs, subtype A isolate 92UG029
Format: cell-based, HIV-1
experimental_parameters: Human immunodeficiency virus 1; PHA-PBMs, p24 Gag production; read-out: IC50 against 92UG029 (A-X4)
Please express pIC50 as -log10 of the molar concentration.

compound="CC(C)CN(CC(O)C(Cc1ccccc1)NC(=O)OC1COC2OCCC12)S(=O)(=O)c1ccc2c(c1)OCO2 (stereo not drawn) [GRL-98065]" experimental_readout=pIC50 reported=9.30
compound="COC(=O)N[C@H](C(=O)N[C@@H](Cc1ccccc1)[C@@H](O)CN(Cc1ccc(-c2ccccn2)cc1)NC(=O)[C@@H](NC(=O)OC)C(C)(C)C)C(C)(C)C [ATV, Atazanavir]" experimental_readout=pIC50 reported=8.22

Lab note: next compound to report on.
Measured pIC50, Cc1c(O)cccc1C(=O)N[C@@H](CSc1ccccc1)[C@H](O)CN1C[C@H]2CCCC[C@H]2C[C@H]1C(=O)NC(C)(C)C [NFV, Nelfinavir] : 7.37

###

System: 92UG037 (A-R5)
assay_text: p24 Gag production inhibition, PHA-PBMs, subtype A isolate 92UG037
Assay type: cell-based, HIV-1
experimental_parameters: Human immunodeficiency virus 1, read-out: IC50 against 92UG037 (A-R5)
experimental_readout: pIC50
Please keep in mind that pIC50 is minus log10 of the molar concentration; only the number is needed.

# annotated cases, reported pIC50 shown
compound="COC(=O)N[C@H](C(=O)N[C@@H](Cc1ccccc1)[C@@H](O)CN(Cc1ccc(-c2ccccn2)cc1)NC(=O)[C@@H](NC(=O)OC)C(C)(C)C)C(C)(C)C [ATV, Atazanavir]" measured_target="92UG037 (A-R5)" reported=8.60
compound="CC(C)CN(CC(O)C(Cc1ccccc1)NC(=O)OC1COC2OCCC12)S(=O)(=O)c1ccc2c(c1)OCO2 (centres unmarked) [GRL-98065]" measured_target="92UG037 (A-R5)" reported=9.40
compound="CC(C)c1nc(CN(C)C(=O)N[C@H](C(=O)N[C@@H](Cc2ccccc2)C[C@H](O)[C@H](Cc2ccccc2)NC(=O)OCc2cncs2)C(C)C)cs1 [RTV, ritonavir]" measured_target="92UG037 (A-R5)" reported=7.39
compound="CC(C)(C)NC(=O)[C@@H]1C[C@@H]2CCCC[C@@H]2CN1C[C@@H](O)[C@H](Cc1ccccc1)NC(=O)[C@H](CC(N)=O)NC(=O)c1ccc2ccccc2n1 [SQV, Saquinavir]" measured_target="92UG037 (A-R5)" reported=8.49

Moving on to the next compound.
# compound Cc1c(O)cccc1C(=O)N[C@@H](CSc1ccccc1)[C@H](O)CN1C[C@H]2CCCC[C@H]2C[C@H]1C(=O)NC(C)(C)C [NFV, Nelfinavir] ; its pIC50 = 7.25

###

Reported IC50 by item:
Tested on: HIV-2ROD
assay_text: MTT assay, MT-2 cells exposed to HIV-2ROD
Assay type: cell-based
experimental_parameters: Human immunodeficiency virus 2, MT2; MT-2 cells, 100 TCID50, MTT assay; read-out: IC50 against HIV-2ROD
Protocol: Drug susceptibility assay. The susceptibility of HIV-1LAI, HIV-2EHO, HIV-2ROD, to various drugs and the cytotoxicity of those drugs was determined by using the MTT assay. […] On day 7 of culture, the supernatant was harvested and the amount of p24 Gag protein was determined by using a fully automated chemiluminescent enzyme immunoassay system (Lumipulse F; Fujirebio Inc., Tokyo, Japan) (22). […]
Give the number; nM is assumed, so skip it.

Below are worked cases with known answers.
molecule="Cc1c(O)cccc1C(=O)N[C@@H](CSc1ccccc1)[C@H](O)CN1C[C@H]2CCCC[C@H]2C[C@H]1C(=O)NC(C)(C)C [NFV, Nelfinavir]" measured_target=HIV-2ROD reported=240
molecule="Cc1cccc(C)c1OCC(=O)N[C@@H](Cc1ccccc1)[C@@H](O)C[C@H](Cc1ccccc1)NC(=O)[C@H](C(C)C)N1CCCNC1=O [LPV, lopinavir]" measured_target=HIV-2ROD reported=4.9
molecule="CC(C)(C)NC(=O)[C@@H]1CN(Cc2cccnc2)CCN1C[C@@H](O)C[C@@H](Cc1ccccc1)C(=O)N[C@H]1c2ccccc2C[C@H]1O [IDV, indinavir]" measured_target=HIV-2ROD reported=54

Log: HIV-2ROD, molecule CC(C)CN(C[C@@H](O)[C@H](Cc1ccccc1)NC(=O)O[C@H]1CCOC1)S(=O)(=O)c1ccc(N)cc1 [APV, Amprenavir] , IC50 = 570

Record CC(C)c1nc(CN(C)C(=O)N[C@H](C(=O)N[C@@H](Cc2ccccc2)C[C@H](O)[C@H](Cc2ccccc2)NC(=O)OCc2cncs2)C(C)C)cs1 [RTV, ritonavir] / HIV-2ROD, IC50 recorded as 260

###

measured_target: CFP- and YFP-tagged HIV-1 protease subunits (Human immunodeficiency virus type 1 group M subtype B)
Construct: expressed in transfected cells; host or cells: Cos-7
Assay type: cell-based
experimental_parameters: 1 μM, Cos-7 cells
Description: After 72 hr, cultured cells were examined in the FRET-HIV-1 assay system using confocal microscopy Fluoview FV500 confocal laser scanning microscope, and CFP^A/B were determined and plotted. […] The FRET efficiency was determined following acceptor photobleaching as previously described (Bastiaens et al., EMBO 1996; Siegel et al., Science's stke 2000; Firulli et al., Nature genetics, 2005; Szczesna et al., JBC 2003). […]
experimental_readout: inhibition of protease dimerization

Some molecules with known inhibition of protease dimerization results, for comparison:
molecule="CC(C)(C)NC(=O)[C@@H]1C[C@@H]2CCCC[C@@H]2CN1C[C@@H](O)[C@H](Cc1ccccc1)NC(=O)[C@H](CC(N)=O)NC(=O)c1ccc2ccccc2n1 [SQV, Saquinavir]" experimental_readout="inhibition of protease dimerization" reported=None
molecule="Cc1c(O)cccc1C(=O)N[C@@H](CSc1ccccc1)[C@H](O)CN1C[C@H]2CCCC[C@H]2C[C@H]1C(=O)NC(C)(C)C [NFV, Nelfinavir]" experimental_readout="inhibition of protease dimerization" reported=None
molecule="Cc1cccc(C)c1OCC(=O)N[C@@H](Cc1ccccc1)[C@@H](O)C[C@H](Cc1ccccc1)NC(=O)[C@H](C(C)C)N1CCCNC1=O [LPV, lopinavir]" experimental_readout="inhibition of protease dimerization" reported=None
molecule="COC(=O)N[C@H](C(=O)N[C@@H](Cc1ccccc1)[C@@H](O)CN(Cc1ccc(-c2ccccn2)cc1)NC(=O)[C@@H](NC(=O)OC)C(C)(C)C)C(C)(C)C [ATV, Atazanavir]" experimental_readout="inhibition of protease dimerization" reported=None

Now turn to the next molecule.
Entry CC(C)c1nc(CN(C)C(=O)N[C@H](C(=O)N[C@@H](Cc2ccccc2)C[C@H](O)[C@H](Cc2ccccc2)NC(=O)OCc2cncs2)C(C)C)cs1 [RTV, ritonavir] , inhibition of protease dimerization reported as None

###

Recorded IC50 for the following molecules
Test system: HIV-1LAI
assay_text: MTT assay, MT-2 cells exposed to HIV-1LAI (acute HIV-1 infection assay)
Type: cell-based
experimental_parameters: Human immunodeficiency virus 1, MT2, 168 h; MT-2 cells, 100 TCID50 of HIV-1LAI, MTT assay on day 7; read-out: IC50 against HIV-1LAI
Protocol: Drug susceptibility assay. The susceptibility of HIV-1LAI, HIV-2EHO, HIV-2ROD, to various drugs and the cytotoxicity of those drugs was determined by using the MTT assay. […] On day 7 of culture, the supernatant was harvested and the amount of p24 Gag protein was determined by using a fully automated chemiluminescent enzyme immunoassay system (Lumipulse F; Fujirebio Inc., Tokyo, Japan) (22). […]
Provide the reading as a plain figure in µM.

molecular_string=Cc1cccc(C)c1OCC(=O)N[C@@H](Cc1ccccc1)[C@@H](O)C[C@H](Cc1ccccc1)NC(=O)[C@H](C(C)C)N1CCCNC1=O reported=0.007
molecular_string=CC(C)(C)NC(=O)[C@@H]1CN(Cc2cccnc2)CCN1C[C@@H](O)C[C@@H](Cc1ccccc1)C(=O)N[C@H]1c2ccccc2C[C@H]1O reported=0.048
molecular_string=Cc1c(O)cccc1C(=O)N[C@@H](CSc1ccccc1)[C@H](O)CN1C[C@H]2CCCC[C@H]2C[C@H]1C(=O)NC(C)(C)C reported=0.032
molecular_string=CC(C)CN(C[C@@H](O)[C@H](Cc1ccccc1)NC(=O)O[C@H]1CCOC1)S(=O)(=O)c1ccc(N)cc1 reported=0.036

// moving on: another record for IC50
IC50 in this record for CC(C)c1nc(CN(C)C(=O)N[C@H](C(=O)N[C@@H](Cc2ccccc2)C[C@H](O)[C@H](Cc2ccccc2)NC(=O)OCc2cncs2)C(C)C)cs1 : 0.054
